All figures here come from PubChem BioAssay AID1471.

# experimental protocol: qHTS Multiplex Assay to Identify Dual Action Probes in a Cell Model of Huntington: Cytoprotection (ATP);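 note: toxic huntingtin expression switched on by the ecdysone agonist tebufenozide; % of control where 0% means no effect; nearly all actives have a fitted effect of over 45% in size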
# condition label: PC12 HTT-Q103 induced, ATP luminescence, 40 h; series mostly up to 56.4 µM
The whole screen tested about 230,000 compounds, of which about 310 (0.13%) were called active. Inconclusive results (about 2%) are left out. The full list was thinned out, with actives kept by preference.
result type: cytoprotection (ATP increase)

Study these solved cases before continuing.
compound: Cc1cc2oc(=O)cc(-c3ccccc3)c2c(C)c1-c1ccc(OC(F)(F)F)cc1
cytoprotection (ATP increase): inactive
--
compound: COc1ccc(-c2nc3c(c4c2C[C@H](c2ccccc2)OC4)CN(S(=O)(=O)c2c(C)noc2C)CC3)c(C)c1
cytoprotection (ATP increase): -10% [at 10 µM] (inactive)
--
compound: CC(C)(C)OC(=O)NCCCCC1=CC2=CC(=O)C(C)(OC(=O)c3cccs3)C(=O)C2=CO1 (stereo not drawn)
cytoprotection (ATP increase): inactive
--
compound: O=C(Cc1ccc(F)cc1)NC1CCCC1
cytoprotection (ATP increase): inactive
--
compound: COC(=O)C(C(=O)OC)[C@@H](NC=O)c1ccccc1
cytoprotection (ATP increase): inactive

Prompt line: Given the compound `C=C1O[C@@](CO)(n2cnc3c(N)ncnc32)[C@H](O)[C@@H]1O` , what is its reported cytoprotection (ATP increase)?
Response line: inactive

Prompt line: Given the compound COc1ccc(C(C)=O)cc1CN1C(=O)NC2(CCCCC2C)C1=O (stereo not drawn) , what is its reported cytoprotection (ATP increase)?
Response line: inactive

Prompt line: Given the compound `C[C@H]1Cc2c(-c3ccccc3)nc3c(c2CO1)CN(C(=O)C1CC1)CC3` , what is its reported cytoprotection (ATP increase)?
Response line: -5.29% [at 10 µM] (inactive)
